These measurements were taken from patent US20250320224A1.

Below, each of the molecules is paired with its reported IC50 value.
Target: human PAR-2 (hPAR-2) receptor (Homo sapiens)
Construct: endogenous in cells
Sequence (P55085 26-397): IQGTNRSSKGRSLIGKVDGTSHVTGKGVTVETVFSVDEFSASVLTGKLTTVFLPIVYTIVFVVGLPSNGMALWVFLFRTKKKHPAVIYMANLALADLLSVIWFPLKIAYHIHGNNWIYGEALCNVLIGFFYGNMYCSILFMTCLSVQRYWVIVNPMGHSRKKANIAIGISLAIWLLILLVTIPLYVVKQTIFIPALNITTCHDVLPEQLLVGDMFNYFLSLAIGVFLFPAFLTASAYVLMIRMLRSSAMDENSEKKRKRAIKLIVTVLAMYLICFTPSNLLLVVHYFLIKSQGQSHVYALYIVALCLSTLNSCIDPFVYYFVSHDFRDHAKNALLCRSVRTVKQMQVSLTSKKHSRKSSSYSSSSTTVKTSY
Test: In vitro human PAR-2 functional antagonist activity using calcium assays
Conditions: hPAR-2 endogenously expressed in HEK-293 cells; stimulated by 2-Furoyl-LIGRLO-NH2 peptide; Fluo4AM intracellular calcium, FLIPR Tetra
Where a name gives a salt, the structure may show the parent alone.

Example entries begin here.
CC1(C)CN(c2ccc(Cl)c(F)c2)c2ccc(C(=O)N3CCN(c4ccc(CC(=O)O)cn4)CC3(C)C)nc2O1    > 10000 nM
CC1(C)C(=O)NCCN1C(=O)c1ccc2c(n1)C1(CCC1)CN2c1ccc(Cl)c(F)c1    < 500 nM
Cc1cc(N2CCN(C(=O)c3cnc4c(n3)C3(CCC3)CN4c3ccc(Cl)c(F)c3)C(C)(C)C2)nc(C)c1C(=O)O    < 500 nM

Q. # get_value(readout='IC50', item= Cc1cc(N2CCN(C(=O)c3ccc4c(n3)C3(CCCC3)CN4c3ccc(F)c(F)c3)C(C)(C)C2)nc(C)c1C(=O)O )
A. < 500 nM

Q. Fill in the blank: the reported IC50 of O=C(O)CC1CCN(C(=O)c2ccc3c(n2)C2(CCC2)CN3c2ccc(Cl)c(F)c2)CC1 is ____.
A. 500 to 10000 nM

Q. Item CN1CCN(C(=O)c2csc(N3CCN(C(=O)c4ccc5c(n4)C(C)(C)CN5c4ccc(Cl)c(F)c4)C(C)(C)C3)n2)CC1 [Example 101, hydrochloride] has what recorded IC50?
A. < 500 nM

Q. Looking for the measured IC50 of Cc1cc(N2CCN(C(=O)c3ccc4c(n3)C3(CCOC3)CN4c3ccc(Cl)c(F)c3)C(C)(C)C2)nc(C)c1C(=O)O (stereo not drawn) [Example 60, hydrochloride] , can you help?
A. < 500 nM

Q. Recorded IC50 of Cc1cc(N2CCN(C(=O)c3ccc(N4CC(C)(C)c5nc(C(=O)N6CCN(c7cc(C)c(C(=O)O)c(C)n7)CC6(C)C)ccc54)nc3)C(C)(C)C2)nc(C)c1C(=O)O , please.
A. > 10000 nM

Q. Sample Cc1cc(N2CCN(C(=O)c3ccc4c(n3)C3(C=C(F)C3)CN4c3ccc(Cl)c(F)c3)C(C)(C)C2)nc(C)c1C(=O)O (stereo not drawn) — what was its IC50?
A. < 500 nM

Q. Bench note: what IC50 did Cc1cc(N2CCN(C(=O)c3cnc4c(n3)C3(CCCC3)CN4c3ccc(F)c(F)c3)C(C)(C)C2)nc(C)c1C(=O)O show?
A. < 500 nM

Q. Consider the molecule shown here: CC1(C)CN(c2ccc(Cl)c(F)c2)c2ccc(C(=O)N3CCC4(CC3)CNC(=O)C4)nc21 What is its recorded IC50?
A. 500 to 10000 nM

Q. Item Cc1nc(N2CCN(C(=O)c3ccc4c(n3)C(C)(C)CN4c3ccc(Cl)c(F)c3)C(C)(C)C2)sc1C(=O)O has what recorded IC50?
A. < 500 nM

Q. # get_value(readout='IC50', item= CC1(C)CN(c2ccsc2)c2ccc(C(=O)N3CCNC(=O)C3(C)C)nc21 )
A. 500 to 10000 nM

Q. # input molecule: Cc1cc(N2CCN(C(=O)c3cnc4c(n3)C(C)(C)CN4c3cc(F)c(F)c(F)c3)C(C)(C)C2)nc(C)c1C(=O)O ; wanted: its IC50
A. < 500 nM

Q. Given Cc1ccc(N2CC(C)(C)c3nc(C(=O)N4CCN(c5cc(C)c(C(=O)O)c(C)n5)CC4(C)C)cnc32)cc1F , state its recorded IC50.
A. < 500 nM

Q. I have this molecule here, CC1(C)C(=O)NCCN1C(=O)c1ccc2c(n1)C1(CC1)CN2c1ccc(Cl)c(F)c1 , and I need its recorded IC50.
A. < 500 nM
